Each item that follows carries a reported IC50.
Target: UniProt:P18031
Sequence (P18031 whole entry): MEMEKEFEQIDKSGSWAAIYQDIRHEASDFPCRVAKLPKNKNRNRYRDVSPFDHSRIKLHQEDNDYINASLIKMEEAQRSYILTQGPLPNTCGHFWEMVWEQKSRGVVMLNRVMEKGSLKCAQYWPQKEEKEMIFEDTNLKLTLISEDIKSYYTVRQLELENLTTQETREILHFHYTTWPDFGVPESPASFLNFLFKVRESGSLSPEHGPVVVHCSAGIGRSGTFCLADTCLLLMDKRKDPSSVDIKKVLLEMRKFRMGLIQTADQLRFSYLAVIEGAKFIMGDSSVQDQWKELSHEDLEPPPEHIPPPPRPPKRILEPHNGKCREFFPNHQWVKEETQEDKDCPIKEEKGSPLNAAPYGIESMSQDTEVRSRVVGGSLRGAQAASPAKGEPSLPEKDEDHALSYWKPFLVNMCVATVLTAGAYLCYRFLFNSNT
Test: In vitro inhibitory activity against Protein tyrosine phosphatase 1B (PTP1B) over-expressed in intact Sf9 cell assay
assay.readout: IC50 (nM)

compound	number
O=C(c1ccccc1)C(Cc1ccc(C(F)(F)P(=O)(O)O)c(Br)c1)c1ccccc1 (stereo not drawn)	1220
COC(=O)C(Cc1ccc(C(F)(F)P(=O)(O)O)cc1)(Cc1ccc(C(F)(F)P(=O)(O)O)cc1)C(=O)O	3800
O=P(O)(O)C(F)(F)c1ccc(CC(Cc2ccc(C(F)(F)P(=O)(O)O)cc2)(OCc2ccccc2)OCc2ccccc2)cc1	1300
O=C(OCc1ccccc1)C(Cc1ccc(C(F)(F)P(=O)(O)O)cc1)(Cc1ccc(C(F)(F)P(=O)(O)O)cc1)C(=O)OCc1ccccc1	540
CC(C)OC(=O)C(Cc1ccc(C(F)(F)P(=O)(O)O)cc1)(Cc1ccc(C(F)(F)P(=O)(O)O)cc1)C(=O)OC(C)C	1650
O=C(O)c1ccc(CC(Cc2ccc(C(F)(F)P(=O)(O)O)cc2)(C(=O)c2ccccc2)c2ccccc2)cc1 (stereo not drawn)	6630
COC(=O)C(Cc1ccc(C(F)(F)P(=O)(O)O)cc1)(Cc1ccc(C(F)(F)P(=O)(O)O)cc1)C(=O)OCc1ccccc1	1000
O=C(c1ccccc1)C(C/C=C/c1ccccc1)(Cc1ccc(C(F)(F)P(=O)(O)O)cc1)c1ccccc1 (stereo not drawn)	2000
O=C(c1ccccc1)C(Cc1ccc(C(F)(F)P(=O)(O)O)c(Cl)c1)c1ccccc1 (stereo not drawn)	2400
CC(=O)NS(=O)(=O)c1ccc(CC(Cc2ccc(C(F)(F)P(=O)(O)O)cc2)(C(=O)OCc2ccccc2)C(=O)OCc2ccccc2)cc1	1700
CS(=O)(=O)c1ccc(CC(Cc2ccc(C(F)(F)P(=O)(O)O)cc2)(C(=O)OCc2ccccc2)C(=O)OCc2ccccc2)cc1	7200
O=C(OCc1ccccc1)C(Cc1ccc(C(F)(F)C(=O)O)cc1)(Cc1ccc(C(F)(F)P(=O)(O)O)cc1)C(=O)OCc1ccccc1	1900
O=C(c1ccccc1)C(Cc1ccc(C(F)(F)P(=O)(O)O)cc1)c1ccccc1 (stereo not drawn)	16000
